System: UACC-257 melanoma
ASSAY DETAILS: NCI tumour cell line growth inhibition, 48 h
MEASURED PARAMETER: TGI

Worked examples follow.
[
  {
    "COMPOUND": "COc1ccc2nc(-c3ccc(N)cc3)sc2c1",
    "EXPERIMENTAL SYSTEM": "UACC-257 melanoma",
    "TGI": "> 100 µM"
  },
  {
    "COMPOUND": "Cc1ccc(C)c(N2CCN(c3ccncc3N)CC2)c1",
    "EXPERIMENTAL SYSTEM": "UACC-257 melanoma",
    "TGI": "34.6 µM"
  },
  {
    "COMPOUND": "Nc1ncc(CN2CCCC2)c(-c2ccccc2O)n1",
    "EXPERIMENTAL SYSTEM": "UACC-257 melanoma",
    "TGI": "> 750 µM"
  },
  {
    "COMPOUND": "O=C(O)COc1c(Cl)cc(Cl)c(C(c2c(Cl)cc(Cl)c(OCC(=O)O)c2Cl)C(Cl)(Cl)Cl)c1Cl",
    "EXPERIMENTAL SYSTEM": "UACC-257 melanoma",
    "TGI": "59.8 µM"
  },
  {
    "COMPOUND": "CC1=C(\\C=C/C(C)=C/C=C/C(C)=C/C=C/C=C(C)\\C=C\\C=C(C)/C=C/C2=C(C)CCCC2(C)C)C(C)(C)CCC1",
    "EXPERIMENTAL SYSTEM": "UACC-257 melanoma",
    "TGI": "> 100 µM"
  }
]

For this compound ( CC(C)C(Sc1nc(N)nc2nc[nH]c12)C(=O)O (stereo not given) ), measured TGI is > 100 µM

Noted for COc1ccc(/C=N/n2c(-c3ccccc3)n[nH]c2=O)c(OC)c1 : its TGI reads > 100 µM

The compound identified as O=C1c2cccc3cc([N+](=O)[O-])cc(c23)C(=O)N1c1ccc(OCCN2CCCC2)cc1 registered its TGI at 36.1 µM

* * *

Test system: M19-MEL melanoma
ASSAY DETAILS: NCI tumour cell line growth inhibition, 48 h
TGI values by entry

[
  {
    "COMPOUND": "C=C1C(=O)C23C(O)CC4C(C)(C)CCC(O)C4(C)C2CC(OC(C)=O)C1[C@H]3O (some centres undefined)",
    "VALUE MEASURED": "3.22 µM"
  },
  {
    "COMPOUND": "O=[N+]([O-])c1ccc(N=P(c2ccccc2)(c2ccccc2)c2ccccc2)n2nnnc12",
    "VALUE MEASURED": "> 100 µM"
  },
  {
    "COMPOUND": "C#Cc1c(C)c(/C=C/C(C)=C\\C(=O)OC)n(C)c1C",
    "VALUE MEASURED": "> 100 µM"
  },
  {
    "COMPOUND": "O=S(c1ccc(O)cc1)c1ccc(O)cc1",
    "VALUE MEASURED": "> 100 µM"
  },
  {
    "COMPOUND": "N#C/C(=C/c1ccc([N+](=O)[O-])o1)c1ccccc1",
    "VALUE MEASURED": "> 100 µM"
  }
]

TGI measured on CC(=O)[CH-]C(=O)c1ccccc1.CC(=O)[CH-]C(=O)c1ccccc1.Cl.[O-]CCc1ccccn1.[O-]CCc1ccccn1.[Ti+4] = 75.3 µM

The measured TGI associated with O=C1OCc2nc3c(c(-c4ccccc4C(F)(F)F)c21)C(=O)OC3 reads > 100 µM

Query CCCOC(=O)CCC(NC(=O)c1ccc(Nc2nc3ccccc3nc2-c2cccs2)cc1)C(=O)OCCC (centres undefined) yields TGI of > 100 µM

Per the records, this compound ( COC1=CC(=O)[C@@]2(C)C(C)[C@H](c3ccccc3)[C@H]2C1=O (some centres undefined) ) has TGI equal to > 100 µM

So, CCOC(=O)C(Oc1ccc(OC)c2c1C(=O)CCC2)c1ccccc1 (centres undefined) ? Its TGI was > 100 µM

What the record says about CSCSCC(CO)NC(=O)/C=C/c1c(C)[nH]c(=O)[nH]c1=O (centres undefined) : TGI is > 100 µM

Kindly note the recorded TGI for CC/C(CC(=O)CCC(=O)Nc1ccc(C)c(C)c1)=N\NC(=O)c1cc2ccccc2cc1O , which is > 100 µM

Entry CCOC(=O)C(=O)CC(=O)C(Br)C(Br)c1ccc(Cl)cc1 (centres undefined) ; TGI = 52.4 µM

response.value for COC(OC)c1cccc2c1C(=O)CCC1(CC2)OCCCCO1 (field: TGI) = > 100 µM
